assay: NCI Yeast Anticancer Drug Screen. Data for the cln2 rad14 strain (AID 165);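 also: 0% = growth equal to vehicle treated cultures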; settings: S. cerevisiae cln2 rad14 strain, at 50.0 µM
About 79,000 compounds went through this panel and 15% of them were active in at least one assay; those are over-represented in the sample as a whole. The source made the active and inactive calls. Rule as the data show it: active = growth inhibition above about 70%; inactive = the rest.
Write down one outcome, taken from true (1) = active, false (0) = inactive

Solved cases below.
compound	assigned.category
Nc1nc(=O)n(CCCOc2ccc([N+](=O)[O-])c(Cl)c2)cc1-c1ccc(Cl)c(Cl)c1	false (0)
CCN(CCOC(=O)Nc1cccc(C(C)=O)c1)c1ccccc1	true (1)
CCNC(=O)OCCN(CCOC(=O)NCC)CCc1cccc(OC)c1OC	false (0)
CC(C)O[Si](OC(C)C)(OC(C)C)OC(C)C	false (0)
CC(=O)NC(CSCN(C)c1nc(N(C)C)nc(N(C)C)n1)C(=O)O (stereo not drawn)	false (0)

// return assay outcome for CCOC(=O)c1oc2cc(O)cc(O)c2c(=O)c1-c1ccc(OC)cc1 false (0)

// return assay outcome for Cc1c(C2(c3cc(C(C)C)c(O)c(CN(CC(=O)O)CC(=O)O)c3C)OS(=O)(=O)c3ccccc32)cc(C(C)C)c(O)c1CN(CC(=O)O)CC(=O)O false (0)

// return assay outcome for COc1cc(C2C(C(=O)O)=C(COC(C)=O)Oc3cc4c(cc32)OCO4)cc(OC)c1OC (stereo not drawn) false (0)

// return assay outcome for O=C1C(=Cc2ccc([N+](=O)[O-])o2)C(=O)N(CCc2ccccc2)S(=O)(=O)N1CCc1ccccc1 false (0)

// return assay outcome for N#CC12CCC(O)C(CC1)C2=O (stereo not drawn) false (0)
